Test system: hTERT-HMEC
Assay: percentage of EdU-negative (G0-arrested) nuclei per well, 72 h; higher = more G0 arrest
Conditions: protein concentration 0.0225 µM; reference: sequence is the full UniProt precursor, the tested protein was the secreted form or ectodomain
In this section we review reported percentage of EdU-negative values for a set of sequences.
Measurement Type: percentage of EdU-negative (%)

• MSPSPTALFCLGLCLGRVPAQSGPLPKPSLQALPSSLVPLEKPVTLRCQGPPGVDLYRLEKLSSSRYQDQAVLFIPAMKRSLAGRYRCSYQNGSLWSLPSDQLELVATGVFAKPSLSAQPGPAVSSGGDVTLQCQTRYGFDQFALYKEGDPAPYKNPERWYRASFPIITVTAAHSGTYRCYSFSSRDPYLWSAPSDPLELVVTGTSVTPSRLPTEPPSPVAEFSEATAELTVSFTNEVFTTETSRSITASPKESDSPAGPARQYYTKGNLVRICLGAVILIILAGFLAEDWHSRRKRLRHRGRAVQRPLPPLPPLPLTRKSNGGQDGGRQDVHSRGLCS [Q9HCN6] = 4.56
• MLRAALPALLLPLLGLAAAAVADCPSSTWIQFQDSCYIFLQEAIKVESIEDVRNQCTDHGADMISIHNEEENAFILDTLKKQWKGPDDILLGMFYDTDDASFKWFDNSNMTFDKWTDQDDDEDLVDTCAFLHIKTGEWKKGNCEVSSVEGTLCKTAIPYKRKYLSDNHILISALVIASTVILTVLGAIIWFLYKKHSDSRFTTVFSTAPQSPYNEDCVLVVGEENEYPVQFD [Q8IX05] = 4.48
• MVGKMWPVLWTLCAVRVTVDAISVETPQDVLRASQGKSVTLPCTYHTSTSSREGLIQWDKLLLTHTERVVIWPFSNKNYIHGELYKNRVSISNNAEQSDASITIDQLTMADNGTYECSVSLMSDLEGNTKSRVRLLVLVPPSKPECGIEGETIIGNNIQLTCQSKEGSPTPQYSWKRYNILNQEQPLAQPASGQPVSLKNISTDTSGYYICTSSNEEGTQFCNITVAVRSPSMNVALYVGIAVGVVAALIIIGIIIYCCCCRGKDDNTEDKEDARPNREAYEEPPEQLRELSREREEEDDYRQEEQRSTGRESPDHLDQ = 4.72
• MGVCGYLFLPWKCLVVVSLRLLFLVPTGVPVRSGDATFPKAMDNVTVRQGESATLRCTIDDRVTRVAWLNRSTILYAGNDKWSIDPRVIILVNTPTQYSIMIQNVDVYDEGPYTCSVQTDNHPKTSRVHLIVQVPPQIMNISSDITVNEGSSVTLLCLAIGRPEPTVTWRHLSVKEGQGFVSEDEYLEISDIKRDQSGEYECSALNDVAAPDVRKVKITVNYPPYISKAKNTGVSVGQKGILSCEASAVPMAEFQWFKEETRLATGLDGMRIENKGRMSTLTFFNVSEKDYGNYTCVATNKLGNTNASITLYGPGAVIDGVNSASRALACLWLSGTLLAHFFIKF = 4.81
• MKLMVLVFTIGLTLLLGVQAMPANRLSCYRKILKDHNCHNLPEGVADLTQIDVNVQDHFWDGKGCEMICYCNFSELLCCPKDVFFGPKISFVIPCNNQ = 5.85
• MGPLINRCKKILLPTTVPPATMRIWLLGGLLPFLLLLSGLQRPTEGSEVAIKIDFDFAPGSFDDQYQGCSKQVMEKLTQGDYFTKDIEAQKNYFRMWQKAHLAWLNQGKVLPQNMTTTHAVAILFYTLNSNVHSDFTRAMASVARTPQQYERSFHFKYLHYYLTSAIQLLRKDSIMENGTLCYEVHYRTKDVHFNAYTGATIRFGQFLSTSLLKEEAQEFGNQTLFTIFTCLGAPVQYFSLKKEVLIPPYELFKVINMSYHPRGDWLQLRSTGNLSTYNCQLLKASSKKCIPDPIAIASLSFLTSVIIFSKSRV = 5.08
• MKLNLVQIFFMLLMLLLGLGMGLGLGLHMATAVLEESDQPLNEFWSSDSQDKAEATEEGDGTQTTETLVLSNKEVVQPGWPEDPILGEDEVGGNKMLRASALFQSNKDYLRLDQTDRECNDMMAHKMKEPSQSCIAQYAFIHEDLNTVKAVCNSPVIACELKGGKCHKSSRPFDLTLCELSQPDQVTPNCNYLTSVIKKHIIITCNDMKRQLPTGQ [Q5GAN6] = 5.66
• MKGWGWLALLLGALLGTAWARRSQDLHCGACRALVDELEWEIAQVDPKKTIQMGSFRINPDGSQSVVEVPYARSEAHLTELLEEICDRMKEYGEQIDPSTHRKNYVRVVGRNGESSELDLQGIRIDSDISGTLKFACESIVEEYEDELIEFFSREADNVKDKLCSKRTDLCDHALHISHDEL [Q9Y2B0] = 5.14
• MPEEGSGCSVRRRPYGCVLRAALVPLVAGLVICLVVCIQRFAQAQQQLPLESLGWDVAELQLNHTGPQQDPRLYWQGGPALGRSFLHGPELDKGQLRIHRDGIYMVHIQVTLAICSSTTASRHHPTTLAVGICSPASRSISLLRLSFHQGCTIASQRLTPLARGDTLCTNLTGTLLPSRNTDETFFGVQWVRP = 5.04
• MPGGPGVLQALPATIFLLFLLSAVYLGPGCQALWMHKVPASLMVSLGEDAHFQCPHNSSNNANVTWWRVLHGNYTWPPEFLGPGEDPNGTLIIQNVNKSHGGIYVCRVQEGNESYQQSCGTYLRVRQPPPRPFLDMGEGTKNRIITAEGIILLFCAVVPGTLLLFRKRWQNEKLGLDAGDEYEDENLYEGLNLDDCSMYEDISRGLQGTYQDVGSLNIGDVQLEKP = 5.39
• MWLLLTLSFLLASTAAQDGDKLLEGDECAPHSQPWQVALYERGRFNCGASLISPHWVLSAAHCQSRFMRVRLGEHNLRKRDGPEQLRTTSRVIPHPRYEARSHRNDIMLLRLVQPARLNPQVRPAVLPTRCPHPGEACVVSGWGLVSHNEPGTAGSPRSQVSLPDTLHCANISIISDTSCDKSYPGRLTNTMVCAGAEGRGAESCEGDSGGPLVCGGILQGIVSWGDVPCDNTTKPGVYTKVCHYLEWIRETMKRN [Q9H2R5] = 5.58
• MKGSIFTLFLFSVLFAISEVRSKESVRLCGLEYIRTVIYICASSRWRRHQEGIPQAQQAETGNSFQLPHKREFSEENPAQNLPKVDASGEDRLWGGQMPTEELWKSKKHSVMSRQDLQTLCCTDGCSMTDLSALC [Q9Y5Q6] = 5.01

---

Tested on: hTERT-HMEC
Assay: percentage of EdU-negative (G0-arrested) nuclei per well, 72 h; higher = more G0 arrest
Details: protein concentration 0.0225 µM; reference: sequence is the full UniProt precursor, the tested protein was the secreted form or ectodomain
Measurement Type: percentage of EdU-negative (%)

• MRPQGPAASPQRLRGLLLLLLLQLPAPSSASEIPKGKQKAQLRQREVVDLYNGMCLQGPAGVPGRDGSPGANGIPGTPGIPGRDGFKGEKGECLRESFEESWTPNYKQCSWSSLNYGIDLGKIAECTFTKMRSNSALRVLFSGSLRLKCRNACCQRWYFTFNGAECSGPLPIEAIIYLDQGSPEMNSTINIHRTSSVEGLCEGIGAGLVDVAIWVGTCSDYPKGDASTGWNSVSRIIIEELPK [Q96CG8] = 5.3
• MWVLGIAATFCGLFLLPGFALQIQCYQCEEFQLNNDCSSPEFIVNCTVNVQDMCQKEVMEQSAGIMYRKSCASSAACLIASAGYQSFCSPGKLNSVCISCCNTPLCNGPRPKKRGSSASALRPGLRTTILFLKLALFSAHC [Q8N2G4] = 5.36

---

In this section we review reported percentage of EdU-negative values for a set of sequences.
System: hTERT-HMEC;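 further: secreted proteins added to cultured cells, EdU pulse at the end, nuclei found by Hoechst imaging, EdU status from nuclear versus surrounding ring intensity ratio, PBS as neutral control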
Assay: percentage of EdU-negative (G0-arrested) nuclei per well, 72 h; higher = more G0 arrest
Conditions: protein concentration 0.3125 µM; reference: sequence is the full UniProt precursor, the tested protein was the secreted form or ectodomain
Measurement Type: percentage of EdU-negative (%)

* MVKQIESKTAFQEALDAAGDKLVVVDFSATWCGPCKMIKPFFHSLSEKYSNVIFLEVDVDDCQDVASECEVKCMPTFQFFKKGQKVGEFSGANKEKLEATINELV | 4.9
* MRPTLLWSLLLLLGVFAAAAAAPPDPLSQLPAPQHPKIRLYNAEQVLSWEPVALSNSTRPVVYQVQFKYTDSKWFTADIMSIGVNCTQITATECDFTAASPSAGFPMDFNVTLRLRAELGALHSAWVTMPWFQHYRNVTVGPPENIEVTPGEGSLIIRFSSPFDIADTSTAFFCYYVHYWEKGGIQQVKGPFRSNSISLDNLKPSRVYCLQVQAQLLWNKSNIFRVGHLSNISCYETMADASTELQQVILISVGTFSLLSVLAGACFFLVLKYRGLIKYWFHTPPSIPLQIEEYLKDPTQPILEALDKDSSPKDDVWDSVSIISFPEKEQEDVLQTL | 6.09
* MALGVPISVYLLFNAMTALTEEAAVTVTPPITAQQGNWTVNKTEADNIEGPIALKFSHLCLEDHNSYCINGACAFHHELEKAICRCFTGYTGERCEHLTLTSYAVDSYEKYIAIGIGVGLLLSGFLVIFYCYIRKRCLKLKSPYNVCSGERRPL | 5.12
* MMCGAPSATQPATAETQHIADQVRSQLEEKENKKFPVFKAVSFKSQVVAGTNYFIKVHVGDEDFVHLRVFQSLPHENKPLTLSNYQTNKAKHDELTYF | 4.78
